Origin of the recorded values: ChEMBL document CHEMBL1156199

- Tested on: NS3 helicase (Hepatitis C virus genotype 1a)
- EXPERIMENTAL_PROTOCOL: Inhibition of HCV 1a NS3 helicase by fluorimetry
PROPERTY: pIC50
Answers are plain numbers, as −log10 of the molar value.

>>> quantitative_result("COc1cccc2c(=O)c3cccc(C(=O)Nc4cc(Cl)ccn4)c3[nH]c12")
4.45
>>> quantitative_result("COc1cccc2c(=O)c3cc(Cl)cc(C(=O)Nc4cc(Cl)ccn4)c3[nH]c12")
5.82

Go through the list and state pIC50 for each entry.
1. COc1cccc2c(=O)c3cc(Cl)cc(C(=O)Nc4ccccn4)c3[nH]c12
2. COc1cccc2c(=O)c3cccc(C(=O)Nc4cccnc4)c3[nH]c12
3. COc1cccc2c(=O)c3cc(Cl)cc(C(=O)Nc4cccnc4)c3[nH]c12

1: 4.19; 2: 4.69; 3: 4.26

For every item in the list below, what is its measured pIC50?
1. COc1cccc2c(=O)c3cc(F)cc(C(=O)Nc4cccnc4)c3[nH]c12
2. COc1cccc2c(=O)c3cc(F)cc(C(=O)Nc4cc(Cl)ccn4)c3[nH]c12

5.07
4.33

For each listed entry, give its pIC50.
1. COc1cccc2c(=O)c3cccc(C(=O)Nc4ccccn4)c3[nH]c12
2. O=C(Nc1ccncc1)c1cccc2c(=O)c3cccc(OCc4ccccc4)c3[nH]c12

1: 5.21; 2: 5.10

Working through the 2 molecules below one at a time, give pIC50 for each.
1. COc1cccc2c(=O)c3cc(F)cc(C(=O)Nc4ccccn4)c3[nH]c12
2. COc1cc(NC(=O)c2cccc3c(=O)c4cccc(OC)c4[nH]c23)cc(OC)c1OC

1. 5.33
2. 3.12

* * *

Kindly state CC50 at 72 h for each of the entries shown.
- EXPERIMENTAL_PROTOCOL: Cytotoxicity against human HuH7 cells after3 days by XTT assay

>>> result("COc1cccc2c(=O)c3cccc(C(=O)Nc4ccccn4)c3[nH]c12")
"2.5 µM"

Here are 2 compounds. What values of CC50 at 72 h were reported for them?
1. NC(=O)c1ncn([C@@H]2O[C@H](CO)[C@@H](O)[C@H]2O)n1
2. [N-]=[N+]=N[C@]1(CO)O[C@@H](n2ccc(N)nc2=O)[C@H](O)[C@@H]1O

1. 1060 µM
2. > 200 µM

* * *

Record form. Attribute: selectivity ratio. Fill in for each entry.
- EXPERIMENTAL_PROTOCOL: Therapeutic index, ratio of CC50 for human HuH7 cells to EC50 for HCV 1b
- Format: cell-based, Huh-7
- CONDITION: read-out: Ratio CC50/EC50

>>> result("COc1cccc2c(=O)c3cc(F)cc(C(=O)Nc4cccnc4)c3[nH]c12")
"> 1000"
>>> result("COc1cccc2c(=O)c3cccc(C(=O)Nc4cccnc4)c3[nH]c12")
"> 28"
>>> result("[N-]=[N+]=N[C@]1(CO)O[C@@H](n2ccc(N)nc2=O)[C@H](O)[C@@H]1O [4'-AZIDOCYTIDINE]")
"> 143"

Here are 2 compounds. What values of selectivity ratio were reported for them?
1. COc1cc(NC(=O)c2cccc3c(=O)c4cccc(OC)c4[nH]c23)cc(OC)c1OC
2. NC(=O)c1ncn([C@@H]2O[C@H](CO)[C@@H](O)[C@H]2O)n1 [RIBAVIRIN]

1. > 2.5
2. 60.2
